System: MS2 coat protein
Assay Protocol: apparent Kd, MS2 coat protein; higher = weaker binding; RNA-MaP array; FMN 200 µM where present
Run Conditions: designed as: OFF switch for flavin mononucleotide; no ligand
Think of 10 nM as a floor: if apparent Kd stands on it or above, it is y; beneath it, n.

See these solved cases before continuing.
seq_text=GGAAAUCAUGUAGGAUAUGCAUGGCGAAGCUACGCAGAAGGACAUGAGGAUCACCCAUGUUAAAGCUACCGAGUUCGGUGGCAA assigned_class=y
seq_text=UGACUAGUAAUGUAUCGAAAGAUCACAUGAGGAUCACCCAUGUAGGAUAUGAGCAGAAAAUCUGCUCAGAAGGACAUGCUAGUC assigned_class=n
seq_text=GUAGGGUCAGGAUAUACUGGCUGAGGGAUGUAUUGUAGUUGGUAGAAGGGACAUGAGGAUCACCCAUGUAAGAA assigned_class=y
seq_text=CUGUAACAUGAGGAUCACCCAUGUCAGGAUAUCUAUCAUAGCAUCGAAAGAUGCGGGUAGAGAAGGGACUAUCC assigned_class=y
seq_text=CCAUGUUAGCAGGAUAUGCCAUUAUUCCUUUACGCAGAAGGGCUUACAUGAGGAUCACCCAUGUAACAUUUCAU assigned_class=y

Q: Would you say UCUCGGAGCAGAGGAUAUUACAUGAGGAUCACCCAUGUAUGAACCAAUAGCUGGAAACAGCAAUGUAAGAAGGCUGCUCCGACA shows apparent Kd at minimum 10 nM?
Result: y

Q: Would you say UACGUACAGAAGAACUCCGGAUCUAGAAGGGACAUGAGGAUCACCCAUGUACCGUUGAUUGCUUGUCAGGAUAUAGACCCGGCC shows apparent Kd at minimum 10 nM?
Result: n

====

Test system: MS2 coat protein
Assay Protocol: apparent Kd, MS2 coat protein; higher = weaker binding; RNA-MaP array
Run Conditions: designed as: OFF switch for flavin mononucleotide; no ligand
Entries and their measured apparent Kd follow.
Respond numerically; units are nM and should not be typed.

seq_text=AAUGUGUAAGGAUAUACCGUUCAGUCUCUCCACAAUCGAUGGUAGAAGGUACAUGAGGAUCACCCAUGUGAGGA target_under_test="MS2 coat protein" readout_number=14.9
seq_text=UUCACAGUGCAAGGAUAUGACAGUUUACAUGAGGAUCACCCAUGUUGGUCCUAUUCAGAAUGAGAUCAGAAGGUGCUAAUAUGU target_under_test="MS2 coat protein" readout_number=18.6
seq_text=UGUGACCGCCAUUCUCGCGACAUGAGGAUCACCCAUGUUUCCAGAAGGCUCCAGGCUUGUGCUCGAGAGGAUAUGGGAAGAUUC target_under_test="MS2 coat protein" readout_number=28.4
seq_text=ACGGUUCGAGGAUAUGUCGGUAGUUACAUGAGGAUCACCCAUGUUGUGACAUCGUGGUGGACAGAAGGCGACAUCC target_under_test="MS2 coat protein" readout_number=201
seq_text=CCUGUGAUCCACAUGAGGAUCACCCAUGUAUAAGUGAUUGACAGAAGGAGAGCAUGCUUGUGAUUCUAGGAUAUGUUUCUCAUA target_under_test="MS2 coat protein" readout_number=25.2
seq_text=UACGGUGCAGGAUAUCGAAUUUCAAACAUGAGGAUCACCCAUGUCUAAUAUGGCGACUAACGAGAAGGGCAGGAAG target_under_test="MS2 coat protein" readout_number=16.2

API: the following record is the query input.
Q: What does the data say about its apparent Kd? Entry: UCUAACCUAGGAUAUACAUGCCUUGCGUAGCACAUCCGUUUACAUGAGGAUCACCCAUGUAGAAGGAGGGACGG
Result: 6.55

====

Test system: MS2 coat protein
Assay Protocol: apparent Kd, MS2 coat protein; higher = weaker binding; RNA-MaP array; FMN 200 µM where present
Run Conditions: ligand present: flavin mononucleotide; designed as: OFF switch for flavin mononucleotide
Entries and their measured apparent Kd follow.
Respond numerically; units are nM and should not be typed.

seq_text=CUAACACAUGAGGAUCACCCAUGUUAGGAUAUUAGUACUAUUUACCACAUAAUGGCACUGAGAAGGAGCGGGUA measured_parameter="apparent Kd" unit_name=nM readout_number=31.3
seq_text=AGUCGGAGCAGAGGAUAUUACAUGAGGAUCACCCAUGUAUAAAGAUCAAGCUGGAAACAGCAAUGUAAGAAGGCUGCUCCGACA measured_parameter="apparent Kd" unit_name=nM readout_number=321
seq_text=GCAUGGAAAGUGAGGAUAUACCACUGGAUACAGUGGUAGAAGGCACAUGAGGAUCACCCAUGUCUCUACCAUGC measured_parameter="apparent Kd" unit_name=nM readout_number=30.8

API: the following record is the query input.
Q: What does the data say about its apparent Kd? Entry: UCAUGUAUGUAGGAUAUCGAUGUCUUCGGACAUCGAGAAGGACGUACAUGAGGAUCACCCAUGUAACUUGCAUG
Result: 16.6

====

Tested on: MS2 coat protein
Assay Protocol: apparent Kd, MS2 coat protein; higher = weaker binding; RNA-MaP array; tryptophan 2.4 mM where present
Run Conditions: designed as: OFF switch for tryptophan; no ligand
Measured Parameter: apparent Kd (nM)
Respond numerically; units are nM and should not be typed.

Q: What does the data say about its apparent Kd? Entry: GUAUUAACAAAAGUUGAUACAGUGGGUGAACGAGGACCGGUACGGCCGCCACUCGGACAUGAGGAUCACCCAUGUCCAUGUGAAA
Result: 17.2

Q: What does the data say about its apparent Kd? Entry: AGCACUGUGACGGCCGCCACUACAUAUAGGGUGGUCAGGUUCAUAAUACAUGAGGAUCACCCAUGUAGGACCGGGUCUCAGUGCA
Result: 12.5

Q: What does the data say about its apparent Kd? Entry: UCUUUUUUCUUUUCUUCUUUCGGUUCUUUUCGAGGACCGGUACGGCCGCCACUCGAAACAUGAGGAUCACCCAUGUUUUGGUUUU
Result: 11.9

Q: What does the data say about its apparent Kd? Entry: UCCUGCAGAGCGGCCGCCACUGUGUUGCGUGAGGAUGACCCAACAUGAGGAUCACCCAUGUUGUUUAGGACCGGGCUUGCCUCGA
Result: 13.4

====

Test system: MS2 coat protein
Assay Protocol: apparent Kd, MS2 coat protein; higher = weaker binding; RNA-MaP array
Run Conditions: ligand present: theophylline; designed as: OFF switch for theophylline
Think of 90 nM as a floor: if apparent Kd stands on it or above, it is YES; beneath it, NO.

Q: Would you say GCUGCCGUCGGUGAAAACUCCCAUGCAGAUACCAGCGCAUUCCGCCGCCCUUGGCAGCUGCAUACAUGAGGAUCACCCAUGUGUU shows apparent Kd at minimum 90 nM?
Result: YES

====

Tested on: MS2 coat protein
Assay Protocol: apparent Kd, MS2 coat protein; higher = weaker binding; RNA-MaP array
Run Conditions: ligand present: flavin mononucleotide; designed as: OFF switch for flavin mononucleotide
Entries and their measured apparent Kd follow.
Respond numerically; units are µM and should not be typed.

Example entries and their recorded answers appear below.
seq_text=CAAAACUGAGGAUAUACAAAGAAAUGGAACAUAGUACAGUAACAUGAGGAUCACCCAUGUAGAAGGCAGGACUA target_under_test="MS2 coat protein" readout_number=0.0066
seq_text=UCGCAUUCAGGAUAUACUUAAAGGUGAACUGAUCAUAGCAAACAUGAGGAUCACCCAUGUAGAAGGGAAAUAUC target_under_test="MS2 coat protein" readout_number=0.0727
seq_text=UGCGUCGUUUAGAAGGGAGUGGCCCAACAUGAGGAUCACCCAUGUGACGCUCAGAAUGUAUUUGCUCAGGAUAUAAAUGUCUUU target_under_test="MS2 coat protein" readout_number=0.123
seq_text=GUGGGCGCUGAGAAGGACCGGAGACGCCGAUUGGUAGGAUAUCAGAAAGGUGCCGGUGAUUACAUGAGGAUCACCCAUGUAUGG target_under_test="MS2 coat protein" readout_number=0.0202
seq_text=AAUGUGUAAGGAUAUACCGUUCAGUCUCUCCACAAUCGAUGGUAGAAGGUACAUGAGGAUCACCCAUGUGAGGA target_under_test="MS2 coat protein" readout_number=0.0152

Q: What does the data say about its apparent Kd? Entry: AGCUUAAUUAUAGGAUAUGAGAGGACAUGAGGAUCACCCAUGUAGAUGUUUGCCACAUAGCCAGUUCAGAAGGAUAGAGCACCA
Result: 0.0194

Q: What does the data say about its apparent Kd? Entry: AAGAAAUUCUCACAUGAGGAUCACCCAUGUCCACACGACUAGAGAAGGGCCUUCUACGUGCACUGGCAGGAUAUCUAACCGGGA
Result: 0.0875

====

Test system: MS2 coat protein
Assay Protocol: apparent Kd, MS2 coat protein; higher = weaker binding; RNA-MaP array
Run Conditions: ligand present: flavin mononucleotide; designed as: OFF switch for flavin mononucleotide
Entries and their measured apparent Kd follow.

seq_text=ACAAACUCAGGAUAUAACGGUGGACACAUGAGGAUCACCCAUGUAAUCCGUGUGACUUAUUUAGAAGGGAGGCGAU target_under_test="MS2 coat protein" measured_parameter="apparent Kd" result="0.00834 µM"

Q: What does the data say about its apparent Kd? Entry: AGUAGACGAGGAUAUACGGGCAUAUUUGAUAAGAAGAACAGACAUGAGGAUCACCCAUGUAGAAGGCGAGGCUA
Result: 0.0106 µM

Q: What does the data say about its apparent Kd? Entry: UUAUUCCCGGAGGAUAUCGACGUAUUUGGCGCCCGAGAAGGCCGGACAUGAGGAUCACCCAUGUCCCGUGCUCU
Result: 0.00582 µM

Q: What does the data say about its apparent Kd? Entry: UAUGUACAUGAGGAUCACCCAUGUCAGGAUAUCUUCGAUUAGACCAUUAGCGCCGCGGAGAGAAGGGACGUAGA
Result: 0.0151 µM

Q: What does the data say about its apparent Kd? Entry: UCUUCAAUAGUAAGGAUAUCCAUAACAACAUUCAAGGAGAAGGUACAUGAGGAUCACCCAUGUGGAGUCAAUAA
Result: 0.0198 µM
